Sourced from patent US20210054097A1

# assayed_system: T1, FX activation peptide 12-mer KPYDAADLDPTE (human)
# T1 peptide: KPYDAADLDPTE-biotin
# procedure_summary: peptide ELISA
Ends that are not written are not given here.
metric_name: ELISA signal relative to background
I only need the number, thanks.

>  <binder>
Nb 721E08 (VHH, monovalent Nanobody; not shown: C-terminal FLAG3 and HIS6 tag) VHH: EVQLVESGGGVVQPGGSLRLSCAASGRTFSTYSMGWFRQAPGKEREFVAAITRRGSRTYYADSVKGRFTISRDNSKNTVYLQMNSLRPEDTALYYCAADRRPADSYLDYWGQGTLVTVSS

>  <quantitative_result>
1.89

$$$$

Okay, now this binder:
input: Can you look up the measured ELISA signal relative to background of Nb 701B09 (VHH, monovalent Nanobody; also called Nb 701609; not shown: C-terminal FLAG3 and HIS6 tag) VHH: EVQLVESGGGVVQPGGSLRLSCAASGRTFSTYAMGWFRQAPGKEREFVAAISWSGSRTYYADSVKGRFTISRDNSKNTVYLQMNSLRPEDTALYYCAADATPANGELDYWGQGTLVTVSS for me?
output: 0.88
